assay: NCI Yeast Anticancer Drug Screen. Data for the cln2 rad14 strain (AID 165);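 also: 0% = growth equal to vehicle treated cultures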; conditions: S. cerevisiae cln2 rad14 strain, at 50.0 µM, stronger effect = higher value
The panel holds about 79,000 compounds, 15% with a hit somewhere; the sample as a whole holds those more often.
assay endpoint: growth inhibition (%)

{"columns": ["compound", "assay endpoint", "recorded number"],
 "data": [
  ["C[N+](C)(C)CC(=O)N/N=C/c1oc(-c2cccc([N+](=O)[O-])c2)c(-c2cccc([N+](=O)[O-])c2)c1[N+](=O)[O-]", "growth inhibition", 16.3],
  ["CC(CC(=O)O)C(C)C(=O)O (centres undefined)", "growth inhibition", -7.7],
  ["N#CCCN(CCC#N)Cc1ccc2c(O)c(CN(CCC#N)CCC#N)ccc2c1O", "growth inhibition", -1.65],
  ["O=c1[nH]c2cc(Cl)ccc2nc1/C=C(\\O)c1ccc([N+](=O)[O-])cc1", "growth inhibition", 7.85],
  ["Cn1c(N)cc(=O)n(C)c1=O", "growth inhibition", 0.1],
  ["C/C(=N/N)c1sc(-c2nc(C)c(/C(C)=N\\N)s2)nc1C", "growth inhibition", -16],
  ["Cc1ccc(C(=O)/C=C/c2ccc(N(C)C)cc2)cc1", "growth inhibition", 30.9],
  ["C=C1CC(C)(COc2cc(=O)oc3ccccc23)OC1=O (centres undefined)", "growth inhibition", 38.5],
  ["Cn1cnc2cc(N3CCOCC3)c([N+](=O)[O-])cc2c1=O", "growth inhibition", 12.8],
  ["COc1ccc(-n2cc3c(=O)nccc-3c3ccccc32)cc1OC", "growth inhibition", -10.6],
  ["CC(C)CC1NC(=S)N(c2ccccc2)C1=O (centres undefined)", "growth inhibition", -10.1],
  ["C/C(=N/O)c1ccc[nH]1", "growth inhibition", 20.1],
  ["CCCCCCCCc1ccccc1", "growth inhibition", 13.5],
  ["CC(Br)CCc1ccccc1Br (centres undefined)", "growth inhibition", -39.5],
  ["Cc1cccc(O)c1O", "growth inhibition", -0.2],
  ["CC1CCC(O)C(C(O)CC2CC(=O)NC(=O)C2)C1 (centres undefined)", "growth inhibition", -21.7],
  ["O=C(CC/C(CC(=O)c1ccc(Cl)cc1)=N\\O)Nc1cccc(Cl)c1", "growth inhibition", -3.85],
  ["C[n+]1ccc(CCC(=O)Nc2ccccc2)cc1", "growth inhibition", 0.3],
  ["c1ccc(-c2ccccc2-c2ccccc2-c2ccccc2)cc1", "growth inhibition", -39.5],
  ["Cc1cc(N)c(N=Cc2ccccc2[N+](=O)[O-])cc1C", "growth inhibition", -58.8],
  ["COC(=O)C(C(=O)C(=O)Nc1ccc([N+](=O)[O-])cc1[N+](=O)[O-])c1nc2ccc(Cl)cc2[nH]c1=O (centres undefined)", "growth inhibition", 20.2],
  ["CCC(O)(c1ccccc1)c1ccccc1", "growth inhibition", 4.15],
  ["O=C(c1ccccc1)[C@H]1Nc2ccc(Cl)cc2[C@H]2CCC[C@@H]12", "growth inhibition", 10.2],
  ["CC(N)C(C)Cc1ccccc1 (centres undefined)", "growth inhibition", 65.7]
]}

* * *

experiment: NCI Yeast Anticancer Drug Screen. Data for the rad50 strain (AID 155);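 also: 0% = growth of vehicle-only cultures of the same strain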; conditions: S. cerevisiae rad50 strain growth inhibition; at 50.0 µM; stronger effect = higher value
About 79,000 compounds went through this panel and 15% of them were active in at least one assay; those are over-represented in the sample as a whole. Calls of active or inactive are those of the source. Rule as the data show it: active = growth inhibition above about 70%; inactive = the rest.

{"columns": ["molecule", "growth inhibition"],
 "data": [
  ["O=C(O)C1SCCS1", "15.4% (inactive)"],
  ["CC(C)(S(=O)(=O)Oc1ccccc1)S(=O)(=O)Oc1ccccc1", "1.6% (inactive)"],
  ["COc1ccc(CN(C)C)c(C(O)c2ccccc2)c1 (stereo not given)", "9.2% (inactive)"],
  ["CC(CNC(=O)C12CC3CC(CC(C3)C1)C2)NC(=O)C12CC3CC(CC(C3)C1)C2 (stereo not given)", "6.45% (inactive)"],
  ["N#CSCC(=O)CCC(=O)O", "-2.75% (inactive)"],
  ["O=[N+]([O-])c1ccc(-c2cc[cH-]c2)cc1.[Fe+2].c1cc[cH-]c1", "-4.4% (inactive)"],
  ["C=CCCCCCCCCC(=O)NCc1ccncc1", "56.2% (inactive)"],
  ["CCOC(=O)CNC(=O)CNC(=O)CNS(=O)(=O)c1ccc(C)cc1", "-22.1% (inactive)"],
  ["Cc1ccc(C(=O)/C(C#N)=C/Nc2c(C)n(C)n(-c3ccccc3)c2=O)cc1", "17% (inactive)"],
  ["O=c1c(Cl)c(-c2cccc3ccccc23)oc2ccccc12", "-14.3% (inactive)"],
  ["CC(C(OC(=O)C1c2ccccc2-c2ccccc21)c1ccccc1)N(C)C (stereo not given)", "99.5% (active)"],
  ["CC1OC(OC2C(Oc3cc(O)c4c(c3)O[C@H](c3ccc(O)cc3)CC4=O)OC(CO)C(O)C2O)C(O)C(O)C1O (stereo not given in full)", "5.65% (inactive)"],
  ["COc1ccc(-c2cc(-c3ccccc3)nc(-c3cccc([N+](=O)[O-])c3)c2)cc1", "-1.6% (inactive)"],
  ["CCOc1c(N=Nc2cccc(Cl)c2)c(-c2ccccc2)nn1C(N)=S", "-3.4% (inactive)"],
  ["Cn1cnc([N+](=O)[O-])c1Sc1ccccc1C(=O)O", "-2.7% (inactive)"],
  ["CCOC(CNCCC(=O)OC)OCC", "-31.9% (inactive)"],
  ["COC(=O)c1cc(Cl)ccc1NC(=O)C1CCCCC1", "4.75% (inactive)"],
  ["O=C(OCC1OC(c2ccccc2)OC2C(COC(=O)c3ccccc3)OC(c3ccccc3)OC12)c1ccccc1 (stereo not given)", "4.4% (inactive)"],
  ["Cc1ccccc1NCC(C)O (stereo not given)", "-3.05% (inactive)"],
  ["Nc1[nH]c(=S)[nH]c(=O)c1N=Nc1c(Br)cc(S(N)(=O)=O)cc1Br", "4.65% (inactive)"],
  ["Cc1nc(=S)[nH][nH]1", "-0.75% (inactive)"],
  ["O=C(O)C1(C(=O)O)CCN(S(=O)(=O)c2ccccc2)CC1", "-4% (inactive)"],
  ["Cc1ccc(S(=O)(=O)Oc2ccc(-c3ccc([N+](=O)[O-])cc3)cc2)cc1", "1.5% (inactive)"],
  ["CC(=O)N1c2ccccc2C2(C)CCCC(O)C12O (stereo not given)", "8.05% (inactive)"],
  ["Nc1ncnc2c1ncn2C1OC(C(O)CO)C(O)C1N (stereo not given)", "-15.7% (inactive)"]
]}
